substrate: O=C(O)C(=O)O; assay: purified protein; conditions: pH 4.2 (optimum), 52 mM sodium acetate, 140 mM NaCl, 37 °C, potassium oxalate 0-150 mM, Mn enzyme
In this section, each of the proteins is paired with its reported kcat/Km.

protein	kcat/Km
Oxalate decarboxylase (OxDC) (Bacillus subtilis subsp. subtilis str. 168; I191F/T263E) (protein) MKKQNDIPQPIRGDKGATVKIPRNIERDRQNPDMLVPPETDHGTVSNMKFSFSDTHNRLEKGGYAREVTVRELPISENLASVNMRLKPGAIRELHWHKEAEWAYMIYGSARVTIVDEKGRSFIDDVGEGDLWYFPSGLPHSIQALEEGAEFLLVFDDGSFSENSTFQLTDWLAHTPKEVIAANFGVTKEEFSNLPGKEKYIFENQLPGSLKDDIVEGPNGEVPYPFTYRLLEQEPIESEGGKVYIADSTNFKVSKTIASALVEVEPGAMRELHWHPNTHEWQYYISGKARMTVFASDGHARTFNYQAGDVGYVPFAMGHYVENIGDEPLVFLEIFKDDHYADVSLNQWLAMLPETFVQAHLDLGKDFTDVLSKEKHPVVKKKCSK	7000 M⁻¹ s⁻¹
Oxalate decarboxylase (OxDC) (Bacillus subtilis subsp. subtilis str. 168) (protein) MKKQNDIPQPIRGDKGATVKIPRNIERDRQNPDMLVPPETDHGTVSNMKFSFSDTHNRLEKGGYAREVTVRELPISENLASVNMRLKPGAIRELHWHKEAEWAYMIYGSARVTIVDEKGRSFIDDVGEGDLWYFPSGLPHSIQALEEGAEFLLVFDDGSFSENSTFQLTDWLAHTPKEVIAANFGVTKEEISNLPGKEKYIFENQLPGSLKDDIVEGPNGEVPYPFTYRLLEQEPIESEGGKVYIADSTNFKVSKTIASALVTVEPGAMRELHWHPNTHEWQYYISGKARMTVFASDGHARTFNYQAGDVGYVPFAMGHYVENIGDEPLVFLEIFKDDHYADVSLNQWLAMLPETFVQAHLDLGKDFTDVLSKEKHPVVKKKCSK	15000 M⁻¹ s⁻¹
Oxalate decarboxylase (OxDC) (Bacillus subtilis subsp. subtilis str. 168; H279D) (protein) MKKQNDIPQPIRGDKGATVKIPRNIERDRQNPDMLVPPETDHGTVSNMKFSFSDTHNRLEKGGYAREVTVRELPISENLASVNMRLKPGAIRELHWHKEAEWAYMIYGSARVTIVDEKGRSFIDDVGEGDLWYFPSGLPHSIQALEEGAEFLLVFDDGSFSENSTFQLTDWLAHTPKEVIAANFGVTKEEISNLPGKEKYIFENQLPGSLKDDIVEGPNGEVPYPFTYRLLEQEPIESEGGKVYIADSTNFKVSKTIASALVTVEPGAMRELHWHPNTDEWQYYISGKARMTVFASDGHARTFNYQAGDVGYVPFAMGHYVENIGDEPLVFLEIFKDDHYADVSLNQWLAMLPETFVQAHLDLGKDFTDVLSKEKHPVVKKKCSK	10000 M⁻¹ s⁻¹
